Reference for the values: the supplement of paper PMC11208160

- assayComment: recombinant UMI read abundance after kanamycin selection (control-corrected) (log10(CPM+1)); higher = more efficient recombination; extreme values may be limits of the assay; sequences stand for … in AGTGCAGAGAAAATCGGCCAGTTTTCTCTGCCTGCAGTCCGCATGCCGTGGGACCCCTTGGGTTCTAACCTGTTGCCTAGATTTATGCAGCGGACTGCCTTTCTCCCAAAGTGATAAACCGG…AGGTTGGTTTCACT; site = the 11-nt donor;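 further: IS621 bridge recombinase in Escherichia coli cells against a fixed T5 target plasmid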
Binary classification by recombinant UMI read abundance (log10), with 0.01 as an inclusive lower bound for rule met; all other cases are rule not met.

Before answering, review these 2 worked examples.
[[record]]
chain = "GGTCCAACATGGACCGGTTTTCCCGGTAATCCGTATTTGTA (site GGTCCCACTTA)"
cat = "rule not met"

[[record]]
chain = "GAATATTCATGGACCGGTTTTCCCGGTAATCCGTATTTGTT (site GAACATTCTAA)"
cat = "rule not met"


Is recombinant UMI read abundance (log10) for TTAGTATCATGGACCGGTTTTCCCGGTAATCCGTATTTGTC (site CTAGTATCTGT) at or above 0.01?
rule not met

Is recombinant UMI read abundance (log10) for TCCACCGCATGGACCGGTTTTCCCGGTAATCCGTATTTGCG (site CCCACCGCTCG) at or above 0.01?
rule met

Is recombinant UMI read abundance (log10) for GCGGAAACATGGACCGGTTTTCCCGGTAATCCGTATTTGCT (site GCGTAAACTAG) at or above 0.01?
rule met
